B1: FAM50A (parent)
chain: HIFPASRWEPYDPEKKWDKYTIR

Variants of: B1
PROTOCOL TEXT: protein stability index of a GFP-peptide fusion (GPS, HEK-293T) (PSI 1-6); higher = more stable;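 also: lentivirally expressed fusions sorted by FACS into six bins by GFP to DsRed ratio, PSI derived from sequencing read proportions per bin multiplied by bin number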
COND: c terminus: native
RECORDED METRIC: protein stability index

query: Assign protein stability index to the following record: HIFPASRWCPYDPEKKWDKYTIR [E9C]
result: 3.21

query: Input HIFPASRWEPYDPEKKWDKYTGR [I22G] , output reported protein stability index.
result: 2.29

These measurements were taken from the supplement of paper PMC10567573.
